# Test system: 3D7
# PROCEDURE TEXT: Cross-resistance EC50 assay, 3D7 parent / sensitive strain
# Type: cell-based
# STATED CONDITIONS: Plasmodium falciparum; hypoxanthine 48-hour assay; synchronized parasites; 96-well format; strain 3D7 (parent); read-out: 3D7 (PARENT) Average EC50
The entries below are paired with their reported pEC50.
Please treat pEC50 as minus the base-10 logarithm of the molar concentration.

Some entries whose results are on file:
{"columns": ["COMPOUND", "RECORDED RESULT"],
 "data": [
  ["CCC(C)NCC(O)(c1ccc(Cl)cc1)c1ccc(Cl)cc1 (stereo not drawn)", 6.31],
  ["COc1ccc(-c2nc(NC(=O)Cc3ccc4c(c3)OCCO4)sc2C)cc1", 6.78],
  ["O=C(Nc1ccccc1O)c1ccc(Oc2cccc(C(=O)Nc3ccccc3O)c2)cc1", 5.93],
  ["CN(C)CCCNCc1ccc(-c2ccc(Cl)c(Cl)c2)o1", 6.20],
  ["O=C(Nc1ccsc1C(=O)NC1CCCCC1)c1ccc(F)cc1", 5.98],
  ["CCOc1cc2c(cc1OCC)C(c1cc(Cl)ccc1O)NCC2 (stereo not drawn)", 5.97]
]}

input: What does the data say about its pEC50? Entry: `COc1ccc2c3c([nH]c2c1)[C@H](CO)N(C(C)=O)CC31CCN(C(=O)Nc2ccccc2F)CC1`
output: 6.63

input: What does the data say about its pEC50? Entry: `c1cc(-c2cnc3ccc(-c4ccc(N5CCOCC5)cc4)nn23)ccn1`
output: 7.30

input: What does the data say about its pEC50? Entry: CCCN(CCC)CC(O)COc1ccccc1C(=O)Nc1ccccc1 (stereo not drawn)
output: 6.28
